Answer each item with its documented Hu PPB (% free).
assay: Protein binding measurements in human plasma (Hu PPB); format: in vitro ADME; conditions: equilibrium dialysis for 18 hours, fraction unbound
Give the value, in units of % free, as a plain number.

input: Record request: Hu PPB (% free) value, item `CC#CC(=O)N1CC[C@H](Nc2nnc(-c3ccc(C(F)(F)F)cc3)c3ccccc23)C1`
output: 2.0

input: Record request: Hu PPB (% free) value, item `C=CC(=O)N1C[C@H](CO)[C@@H](Nc2nnc(-c3ccc(C(F)(F)F)cc3)c3ccccc23)C1`
output: 5.4

input: Record request: Hu PPB (% free) value, item `C=CC(=O)NC1(CNc2nnc(-c3ccc(C(F)(F)F)cc3)c3ccccc23)CCC1`
output: 0.9

input: Record request: Hu PPB (% free) value, item `C=CC(=O)N1C[C@@H](CO)[C@H](Nc2nnc(-c3ccc(C(F)(F)F)cc3)c3ccccc23)C1`
output: 4.7

input: Record request: Hu PPB (% free) value, item `C=CC(=O)N1CC[C@H](Nc2ncc(-c3ccc(C(F)(F)F)cc3)c3nccnc23)C1`
output: 3.9

input: Record request: Hu PPB (% free) value, item `C=CC(=O)N1CC[C@H](Nc2nnc(-c3ccc(C(F)(F)F)cn3)c3cccnc23)C1`
output: 25.0

input: Record request: Hu PPB (% free) value, item `C=CC(=O)N1C[C@H](O)[C@H](Nc2nnc(-c3ccc(C(F)(F)F)cc3)c3ncccc23)C1`
output: 16.0

input: Record request: Hu PPB (% free) value, item C=CC(=O)N1CC[C@@H](c2nc(-c3ccc(C(F)(F)F)cc3)c3ccccc3n2)C1 (racemic) [Comparative Example C, reference compound]
output: 1.1

input: Record request: Hu PPB (% free) value, item `C=C(F)C(=O)N1C[C@H](F)[C@H](Nc2nnc(-c3ccc(C(F)(F)F)cc3)c3cccnc23)C1`
output: 6.2

input: Record request: Hu PPB (% free) value, item `C=CC(=O)N1C[C@@H](Nc2nnc(-c3ccc(C(F)(F)F)cc3)c3ccccc23)C[C@H]1CO`
output: 5.9

input: Record request: Hu PPB (% free) value, item `C=CC(=O)N1C[C@@H](CO)[C@H](Nc2ncc(-c3ccc(C(F)(F)F)cn3)c3ncccc23)C1`
output: 17.0

input: Record request: Hu PPB (% free) value, item `C=CC(=O)N1C[C@@H](CO)[C@H](Nc2ncc(-c3ccc(C(F)(F)F)cc3)c3ncccc23)C1`
output: 1.9

input: Record request: Hu PPB (% free) value, item `C=CC(=O)N1CC[C@H](Nc2nnc(-c3ccc(C(F)(F)F)cn3)c3ccccc23)C1`
output: 10.0

input: Record request: Hu PPB (% free) value, item `C=CC(=O)N1CC[C@H](Nc2nnc(-c3ccc(C(F)(F)F)cc3)c3ccccc23)C1`
output: 4.7
